target: canine TRPM8 (Canis lupus familiaris); construct: expressed in transfected cells; test: In Vitro Canine TRPM8 Functional Assay (Ca2+ fluorescence, icilin activation); format: cell-based; details: HEK293 cells stably expressing canine TRPM8; icilin activation; Ca2+ fluorescence
pIC50: −log10 of the molar value.
Classification field: enter MET for pIC50 values not below 7, NOT MET for values below it.

*Q* Does the molecule O=C(C(Cc1c(F)cccc1F)c1ccc(C(F)(F)F)cc1)N1CCCC1c1ccccc1Cl (centres unmarked) have recorded pIC50 that is 7 or more?
*A* MET

*Q* Next entry: O=C(C(CNc1ccccc1)c1ccc(C(F)(F)F)cc1)N1CCCC1c1ccccc1F (centres unmarked)
*A* NOT MET

*Q* Next entry: O=C(C(CNc1ccccc1F)c1ccc(C(F)(F)F)cc1)N1CCCC1c1ccccc1 (centres unmarked)
*A* NOT MET

*Q* Next entry: O=C(C(Nc1cc(F)ccc1F)c1ccc(Cl)cc1)N1CCCC1c1ccccc1Cl (centres unmarked)
*A* MET

*Q* Next entry: CC(C)(C)c1ccc(C(Nc2ccccc2)C(=O)N2CCCC2c2ccc(Cl)cc2)cc1 (single isomer, unassigned) [Cpd 7]
*A* NOT MET

----------
molecular target: canine TRPM8 (Canis lupus familiaris, UniProt Q1A7N1); construct: expressed in transfected cells; assay: In Vitro Canine TRPM8 Functional Assay (Ca2+ fluorescence, icilin activation); assay type: cell-based; details: HEK293, 0.5 μM compound; canine TRPM8 HEK293; icilin
Sequence (Q1A7N1 1-1104): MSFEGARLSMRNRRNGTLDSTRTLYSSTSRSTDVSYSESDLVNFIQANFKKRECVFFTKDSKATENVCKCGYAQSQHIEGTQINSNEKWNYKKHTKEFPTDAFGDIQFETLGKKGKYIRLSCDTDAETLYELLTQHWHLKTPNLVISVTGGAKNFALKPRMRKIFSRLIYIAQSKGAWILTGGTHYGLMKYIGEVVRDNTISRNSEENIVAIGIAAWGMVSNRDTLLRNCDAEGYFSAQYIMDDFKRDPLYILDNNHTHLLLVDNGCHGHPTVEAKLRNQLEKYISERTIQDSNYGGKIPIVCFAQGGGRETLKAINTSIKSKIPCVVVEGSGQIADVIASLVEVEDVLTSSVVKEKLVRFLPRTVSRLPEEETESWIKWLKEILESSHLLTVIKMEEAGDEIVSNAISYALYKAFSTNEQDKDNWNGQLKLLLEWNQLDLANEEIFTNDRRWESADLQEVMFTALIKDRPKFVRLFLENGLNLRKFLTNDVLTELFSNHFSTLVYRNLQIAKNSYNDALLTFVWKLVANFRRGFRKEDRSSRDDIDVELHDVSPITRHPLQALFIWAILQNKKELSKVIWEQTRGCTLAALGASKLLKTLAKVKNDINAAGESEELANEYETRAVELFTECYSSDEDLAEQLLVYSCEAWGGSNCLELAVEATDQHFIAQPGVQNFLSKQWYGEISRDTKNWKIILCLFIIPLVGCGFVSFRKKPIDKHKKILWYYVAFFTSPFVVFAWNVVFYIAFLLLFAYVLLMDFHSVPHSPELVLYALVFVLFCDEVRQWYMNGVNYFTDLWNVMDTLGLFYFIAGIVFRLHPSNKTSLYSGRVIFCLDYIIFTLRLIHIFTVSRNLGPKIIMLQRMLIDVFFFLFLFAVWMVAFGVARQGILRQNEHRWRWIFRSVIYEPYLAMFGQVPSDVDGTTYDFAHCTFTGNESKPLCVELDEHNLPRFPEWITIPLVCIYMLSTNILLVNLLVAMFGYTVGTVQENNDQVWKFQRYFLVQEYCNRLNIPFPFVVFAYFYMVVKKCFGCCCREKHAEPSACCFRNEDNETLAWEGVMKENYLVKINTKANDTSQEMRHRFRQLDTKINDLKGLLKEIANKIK
Record form. Attribute: inhibition at 0.5 µM. Fill in for each entry.
Just the number in %, nothing appended.

*Q* Query inhibition at 0.5 µM on canine TRPM8 (Canis lupus familiaris, UniProt Q1A7N1) for O=C(C(Nc1ccc(F)cc1)c1ccc(Cl)cc1)N1Cc2ccccc2C1 (centres unmarked) [Cpd 120]
*A* 95

*Q* Next entry: O=C(C(Nc1ccccc1F)c1ccc(C(F)(F)F)cc1)N1Cc2ccccc2C1 (centres unmarked) [Cpd 64]
*A* 102

*Q* Next entry: O=C(C(Nc1ccccc1)c1ccc(Cl)cc1)N1CCCC1c1ccccc1F (centres unmarked) [Cpd 142]
*A* 97

*Q* Next entry: O=C(C(Nc1ccccc1)c1ccc(C(F)(F)F)cc1)N1CCCC1c1ccco1 (centres unmarked) [Cpd 52]
*A* 97.8

*Q* Next entry: O=C(C(CNc1ccccc1)c1ccc(C(F)(F)F)cc1)N1Cc2ccccc2C1 (centres unmarked) [Cpd 100]
*A* 90

*Q* Next entry: O=C(C(c1ccc(C(F)(F)F)cc1)N1CCc2ccccc21)N1CCc2ccccc21 (centres unmarked) [Cpd 42]
*A* 102

*Q* Next entry: O=C(C(Nc1ccc(F)cc1F)c1ccc(Cl)cc1)N1CCCC1c1ccccc1Cl (centres unmarked) [Cpd 122]
*A* 96

*Q* Next entry: O=C(C(Nc1ccccc1)c1ccc(C(F)(F)F)cc1)N1CCCC1c1ccncc1 (centres unmarked) [Cpd 28]
*A* 103

*Q* Next entry: COc1ccccc1C1CCCN1C(=O)C(Nc1ccccc1)c1cccc(C(F)(F)F)c1 (centres unmarked) [Cpd 98]
*A* 100

*Q* Next entry: O=C(C(Nc1ccccc1)c1ccc(Br)cc1)N1CCCC1c1ccccc1 (centres unmarked) [Cpd 70]
*A* 103

*Q* Next entry: O=C(C(Nc1ccccc1F)c1ccc(C(F)(F)F)cc1)N1CCCC1c1ccccc1Cl (single isomer, unassigned) [Cpd 155]
*A* 99

*Q* Next entry: O=C(C(Nc1ccccc1F)c1ccc(C(F)(F)F)cc1)N1CCC[C@H]1c1ccccc1F (some centres unmarked) [Cpd 150]
*A* 100

*Q* Next entry: COc1ccccc1C1CCCN1C(=O)C(Nc1cccc(F)c1F)c1ccc(Cl)cc1 (centres unmarked) [Cpd 167]
*A* 97

*Q* Next entry: N#Cc1ccc(C(Nc2ccccc2F)C(=O)N2CCCC2c2ccccc2Cl)cc1 (centres unmarked) [Cpd 62]
*A* 103

*Q* Next entry: O=C(C(Nc1ccccc1F)c1ccc(C(F)(F)F)cc1)N1CCCC1c1ccccc1 (single isomer, unassigned) [Cpd 128]
*A* 100

*Q* Next entry: O=C(C(Nc1ccccc1)c1ccc(C(F)(F)F)cc1)N1CCCC1c1cc2ccccc2[nH]1 (centres unmarked) [Cpd 25]
*A* 102

*Q* Next entry: O=C(C(Nc1c(F)cccc1F)c1ccc(Br)cc1)N1CCCC1c1ccccc1F (single isomer, unassigned) [Cpd 161]
*A* 93

*Q* Next entry: O=C(C(Nc1ccccc1F)c1ccc(C(F)(F)F)cc1)N1CCCC1c1ccc(F)cc1 (centres unmarked) [Cpd 135]
*A* 100

*Q* Next entry: Cc1ccccc1C1CCCN1C(=O)C(Nc1ccccc1)c1ccc(C(F)(F)F)cc1 (centres unmarked) [Cpd 32]
*A* 104

*Q* Next entry: COc1ccccc1C1CCCN1C(=O)C(Nc1c(F)cccc1F)c1ccc(Cl)cc1 (centres unmarked) [Cpd 145]
*A* 99

*Q* Next entry: O=C(C(Nc1ccccc1F)c1ccc(Br)cc1)N1CCCC1c1ccccc1 (centres unmarked) [Cpd 91]
*A* 97

*Q* Next entry: CC(C)(C)c1ccc(C(Nc2ccccc2)C(=O)N2CCCC2c2ccncc2)cc1 (centres unmarked) [Cpd 53]
*A* 99

*Q* Next entry: COc1ccc(NC(C(=O)N2Cc3ccccc3C2)c2ccc(Cl)cc2)cc1 (centres unmarked) [Cpd 140]
*A* 97

*Q* Next entry: COc1ccccc1C1CCCN1C(=O)C(Nc1ccc(F)cc1)c1ccc(Cl)cc1 (centres unmarked) [Cpd 118]
*A* 100

*Q* Next entry: O=C(C(Nc1cccc(F)c1F)c1ccc(Cl)cc1)N1Cc2ccccc2C1 (centres unmarked) [Cpd 169]
*A* 92

*Q* Next entry: O=C(C(Nc1ccccc1)c1ccc(Cl)cc1)N1CCCC1c1ccccc1 (centres unmarked) [Cpd 86]
*A* 97

*Q* Next entry: O=C(C(Nc1ccccc1F)c1ccc(C(F)(F)F)cc1)N1CCCC1c1ccccc1F (single isomer, unassigned) [Cpd 149]
*A* 101

*Q* Next entry: COc1ccc(C(Nc2ccccc2)C(=O)N2CCCC2c2ccccc2)cc1 (centres unmarked) [Cpd 72]
*A* 102

*Q* Next entry: O=C(C(Nc1c(F)cccc1F)c1ccc(Cl)cc1)N1CCCC1c1ccccc1 (centres unmarked) [Cpd 146]
*A* 99

*Q* Next entry: O=C(C(Nc1ccccc1F)c1ccc(Cl)cc1)N1Cc2ccccc2C1 (centres unmarked) [Cpd 113]
*A* 98

*Q* Next entry: COc1ccc(NC(C(=O)N2CCCC2c2ccccc2)c2ccc(Cl)cc2)cc1 (centres unmarked) [Cpd 139]
*A* 81

*Q* Next entry: O=C(C(Nc1ccc(F)cc1)c1ccc(Cl)cc1)N1CCCC1c1ccccc1F (centres unmarked) [Cpd 117]
*A* 101

*Q* Next entry: O=C(C(Nc1c(F)cccc1F)c1ccc(Cl)cc1)N1Cc2ccccc2C1 (centres unmarked) [Cpd 147]
*A* 93

*Q* Next entry: O=C(C(Nc1ccccc1)c1ccc(Br)cc1)N1Cc2ccccc2C1 (centres unmarked) [Cpd 71]
*A* 91

*Q* Next entry: O=C(C(Nc1ccccc1F)c1ccc(Cl)cc1)N1CCCC1c1ccccc1F (centres unmarked) [Cpd 115]
*A* 97
